Attribute: pIC50
Target Under Test: human 11β-HSD1 enzyme (Homo sapiens)
Construct: stably transfected with a construct containing the full-length gene coding for the human 11β-HSD1 enzyme; expressed in transfected cells; HEK293/11β-HSD1 cells)
Sequence (P28845 whole entry): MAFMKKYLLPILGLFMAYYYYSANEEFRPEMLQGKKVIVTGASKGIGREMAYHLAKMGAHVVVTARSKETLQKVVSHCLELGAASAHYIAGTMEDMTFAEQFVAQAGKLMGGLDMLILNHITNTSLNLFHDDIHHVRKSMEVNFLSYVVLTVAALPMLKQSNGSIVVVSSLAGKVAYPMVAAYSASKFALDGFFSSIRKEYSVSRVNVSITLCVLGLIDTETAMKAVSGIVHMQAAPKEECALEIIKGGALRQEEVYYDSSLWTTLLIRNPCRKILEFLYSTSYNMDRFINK
Measurement Notes: Cellular in vitro 11β-HSD1 enzyme inhibition assay (SPA, HEK293/11β-HSD1 cells)
Format: cell-based
Condition: read-out: IC50 for 11β-HSD1 (HEK293)
pIC50: −log10 of the molar value.
Test Readout: pIC50

{"Query Smiles": "COC1(c2ccccc2)CCN(C(=O)c2csc(-c3cn[nH]c3)c2)CC1", "Target Under Test": "human 11β-HSD1 enzyme (Homo sapiens)", "Recorded Value": "≥ 6.30"}
{"Query Smiles": "Cc1n[nH]cc1-c1cc(C(=O)N2CCC(c3ccccc3)CC2)cs1", "Target Under Test": "human 11β-HSD1 enzyme (Homo sapiens)", "Recorded Value": "6.00 to 6.30"}
{"Query Smiles": "O=C(c1csc(-c2cn[nH]c2)c1)N1CCC(O)(c2ccccc2F)CC1", "Target Under Test": "human 11β-HSD1 enzyme (Homo sapiens)", "Recorded Value": "≥ 6.30"}
{"Query Smiles": "Cc1n[nH]cc1-c1cc(C(=O)N2CCC(O)(c3ccccc3Cl)CC2)cs1", "Target Under Test": "human 11β-HSD1 enzyme (Homo sapiens)", "Recorded Value": "≥ 6.30"}
{"Query Smiles": "O=C(c1csc(-c2cn[nH]c2)c1)N1CCC(c2ccccc2C(F)(F)F)CC1", "Target Under Test": "human 11β-HSD1 enzyme (Homo sapiens)", "Recorded Value": "6.00 to 6.30"}
{"Query Smiles": "N#Cc1ccccc1C1CCN(C(=O)c2csc(-c3cn[nH]c3)c2)CC1", "Target Under Test": "human 11β-HSD1 enzyme (Homo sapiens)", "Recorded Value": "≥ 6.30"}
{"Query Smiles": "O=C(c1csc(-c2cn[nH]c2)c1)N1CCC(O)(c2cccc(C(F)(F)F)c2)CC1", "Target Under Test": "human 11β-HSD1 enzyme (Homo sapiens)", "Recorded Value": "6.00 to 6.30"}
